IC50: recorded values
Molecular target: T1, human OT7T175 (metastin receptor) (human, UniProt Q969F8 1-398)
T1 construct: expressed on CHO cells (hOT7T175-expressed CHO cells; hOT7T175/CHO); also called hOT7T175; h0T7T175
T1 sequence (Q969F8 whole entry L364H): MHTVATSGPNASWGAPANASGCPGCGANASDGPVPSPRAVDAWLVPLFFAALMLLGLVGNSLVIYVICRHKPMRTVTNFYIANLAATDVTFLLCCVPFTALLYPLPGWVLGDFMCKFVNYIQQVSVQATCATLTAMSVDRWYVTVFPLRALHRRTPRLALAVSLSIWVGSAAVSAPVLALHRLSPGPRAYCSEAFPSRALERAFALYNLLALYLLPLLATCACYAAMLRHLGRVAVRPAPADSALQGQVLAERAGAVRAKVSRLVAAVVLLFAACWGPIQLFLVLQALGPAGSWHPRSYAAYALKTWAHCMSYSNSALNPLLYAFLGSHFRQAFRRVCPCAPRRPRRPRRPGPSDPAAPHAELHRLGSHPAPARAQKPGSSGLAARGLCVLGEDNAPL
Assay: FMAT competition with Cy-5-labeled metastin (40-54), hOT7T175-expressed CHO cells
Method: h0T7T175-Expressed CHO cells were cultured in MEM-α medium (nucleic acid-free) containing 10% dialyzed serum. The medium was removed and the adherent cells were washed with PBS. Then, PBS containing 5 mM EDTA was added and the cells were scraped from a flask with a cell scraper. […]
Square brackets hold non-standard residues; d marks the D form. Ends that are not written are not given here. * marks the point of attachment. 2‑(indol-3-yl)ethylcarbamoyl = O=C(NCCc1c[nH]c2ccccc12)*; Phe(4-F) = N[C@@H](Cc1ccc(F)cc1)C(=O)O; Arg(Me) = CNC(=N)NCCC[C@H](N)C(=O)O; azaGly = NNC(=O)O
API: value field is a number in nM; no unit string.

[dY]NWNSF[azaGly]L[Arg(Me)][Phe(4-F)]-NH2 [Compound No. 318: [D-Tyr1,AzaGly7,Arg(Me)9,Phe(4F)10]MS10] : 0.99
{2‑(indol-3-yl)ethylcarbamoyl}-NSF[azaGly]L[Arg(Me)]F-NH2 (SMILES CNC(=N)NCCC[C@H](NC(=O)[C@H](CC(C)C)NC(=O)NNC(=O)[C@H](Cc1ccccc1)NC(=O)[C@H](CO)NC(=O)[C@H](CC(N)=O)NC(=O)NCCc1c[nH]c2ccccc12)C(=O)N[C@@H](Cc1ccccc1)C(N)=O) [Compound No. 279: des(1-3)-2-(Indol-3-yl)ethylcarbamoyl-[AzaGly7,Arg(Me)9]MS10] : 29
YNWNSFGLRX (Nal(2)10; C-terminal amide) [Compound No. 110: [Nal(2)10]MS10] : 24

Can you look up the measured IC50 of [dY]NSNSFGL[Arg(Me)]F-NH2 (N-terminus assumed; SMILES CNC(=N)NCCC[C@H](NC(=O)[C@H](CC(C)C)NC(=O)CNC(=O)[C@H](Cc1ccccc1)NC(=O)[C@H](CO)NC(=O)[C@H](CC(N)=O)NC(=O)[C@H](CO)NC(=O)[C@H](CC(N)=O)NC(=O)[C@H](N)Cc1ccc(O)cc1)C(=O)N[C@@H](Cc1ccccc1)C(N)=O) [Compound No. 170: [D-Tyr1,Ser3,Arg(Me)9]MS10] for me? 260
